Target: T1, Human CD137 ECD (human)
T1 construct: also called 4-1BB
T1 sequence (chain, as listed by the source limits assumed): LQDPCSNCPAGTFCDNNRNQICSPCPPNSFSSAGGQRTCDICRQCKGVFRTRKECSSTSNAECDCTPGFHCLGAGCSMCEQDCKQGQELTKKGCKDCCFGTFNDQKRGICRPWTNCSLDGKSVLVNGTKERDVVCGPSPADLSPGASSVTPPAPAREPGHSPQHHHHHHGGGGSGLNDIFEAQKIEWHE
Experiment: single mutant vs template dBBDu183H
fold change of affinity values by entry
Please respond with the number in fold and leave the unit unwritten.

Report fold change of affinity for H183/L072 VH Y59F (antibody, name in Kabat numbering, V domains shown) VH: QVQLVESGGGLVQPGRSLRLSCAASGFTFSNAWMHWVRQAPGKGLEWVAQIKDKGNAYAAYFAPSVKGRFTISRDDSKNSIYLQMNSLKTEDTAVYYCHYVHYASASTVLPAFGVDAWGQGTTVTVSS VL: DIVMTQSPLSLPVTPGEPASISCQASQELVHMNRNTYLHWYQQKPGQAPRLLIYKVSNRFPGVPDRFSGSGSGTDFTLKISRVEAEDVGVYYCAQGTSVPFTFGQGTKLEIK please.
1.5
